# details: in water, 302.76 K
experimentalReadout: solubility (mole fraction)
Quick one: just the number, no unit, thanks!

molecule O=[N+]([O-])/N=C1\NCCN1Cc1ccc(Cl)nc1 , solubility (mole fraction) observed: 2.68e-05

* * *

# details: in water, 344.57 K
experimentalReadout: solubility (mole fraction)
Quick one: just the number, no unit, thanks!

compound O=[N+]([O-])/N=C1\NCCN1Cc1ccc(Cl)nc1 , solubility (mole fraction) observed: 0.000287

* * *

# details: in ethanol, 327.54 K
experimentalReadout: solubility (mole fraction)
Quick one: just the number, no unit, thanks!

compound O=[N+]([O-])/N=C1\NCCN1Cc1ccc(Cl)nc1 , solubility (mole fraction) observed: 0.00225

* * *

# details: in 2-butanone, 326.73 K
experimentalReadout: solubility (mole fraction)

molecule O=[N+]([O-])/N=C1\NCCN1Cc1ccc(Cl)nc1 , solubility (mole fraction) observed: 0.046

* * *

# details: in ethanol, 308.87 K
experimentalReadout: solubility (mole fraction)
Quick one: just the number, no unit, thanks!

compound O=[N+]([O-])/N=C1\NCCN1Cc1ccc(Cl)nc1 , solubility (mole fraction) observed: 0.001

* * *

# details: in acetone, 317.25 K
experimentalReadout: solubility (mole fraction)
Quick one: just the number, no unit, thanks!

molecule O=[N+]([O-])/N=C1\NCCN1Cc1ccc(Cl)nc1 , solubility (mole fraction) observed: 0.0232

* * *

# details: in 2-butanone, 323.87 K
experimentalReadout: solubility (mole fraction)
Quick one: just the number, no unit, thanks!

compound O=[N+]([O-])/N=C1\NCCN1Cc1ccc(Cl)nc1 , solubility (mole fraction) observed: 0.0419

* * *

# details: in methanol, 312.62 K
experimentalReadout: solubility (mole fraction)
Quick one: just the number, no unit, thanks!

compound O=[N+]([O-])/N=C1\NCCN1Cc1ccc(Cl)nc1 , solubility (mole fraction) observed: 0.00247

* * *

# details: in chloroform, 321.74 K
experimentalReadout: solubility (mole fraction)
Quick one: just the number, no unit, thanks!

compound O=[N+]([O-])/N=C1\NCCN1Cc1ccc(Cl)nc1 , solubility (mole fraction) observed: 0.0183

* * *

# details: in methanol, 309.32 K
experimentalReadout: solubility (mole fraction)
Quick one: just the number, no unit, thanks!

molecule O=[N+]([O-])/N=C1\NCCN1Cc1ccc(Cl)nc1 , solubility (mole fraction) observed: 0.00211

* * *

# details: in 2-butanone, 332.97 K
experimentalReadout: solubility (mole fraction)
Quick one: just the number, no unit, thanks!

compound O=[N+]([O-])/N=C1\NCCN1Cc1ccc(Cl)nc1 , solubility (mole fraction) observed: 0.0573

* * *

# details: in 1,2-dichloroethane, 302.87 K
experimentalReadout: solubility (mole fraction)
Quick one: just the number, no unit, thanks!

compound O=[N+]([O-])/N=C1\NCCN1Cc1ccc(Cl)nc1 , solubility (mole fraction) observed: 0.0108

* * *

# details: in 1,2-dichloroethane, 333.75 K
experimentalReadout: solubility (mole fraction)
Quick one: just the number, no unit, thanks!

compound O=[N+]([O-])/N=C1\NCCN1Cc1ccc(Cl)nc1 , solubility (mole fraction) observed: 0.0345

* * *

# details: in water, 330.75 K
experimentalReadout: solubility (mole fraction)
Quick one: just the number, no unit, thanks!

compound O=[N+]([O-])/N=C1\NCCN1Cc1ccc(Cl)nc1 , solubility (mole fraction) observed: 0.000132
